Experiment: Light illumination test (intense light, 4500±500 Lx)
Format: physicochemical
Conditions: light 4500±500 Lx, 10th day; hydrochloride
Where a name gives a salt, the structure may show the parent alone.
Purity (%): recorded values
ASSAY_ENDPOINT: Purity (%)

Cc1nc(Nc2ccc(F)cc2)nc(N2CCc3ccccc3C2C)c1C (single isomer, unassigned) [revaprazan hydrochloride crystalline form I] :: 99.94
Cc1nc(Nc2ccc(F)cc2)nc(N2CCc3ccccc3C2C)c1C (single isomer, unassigned) [revaprazan hydrochloride crystalline form IV] :: 99.92
Cc1nc(Nc2ccc(F)cc2)nc(N2CCc3ccccc3C2C)c1C (single isomer, unassigned) [revaprazan hydrochloride crystalline form II] :: 99.94
Cc1nc(Nc2ccc(F)cc2)nc(N2CCc3ccccc3C2C)c1C (single isomer, unassigned) [revaprazan hydrochloride crystalline form V] :: 99.95

====

Experiment: High temperature test (60° C. incubator)
Type: physicochemical
Settings: 60° C., 10th day; hydrochloride
Where a name gives a salt, the structure may show the parent alone.
ASSAY_ENDPOINT: Appearance color

Cc1nc(Nc2ccc(F)cc2)nc(N2CCc3ccccc3C2C)c1C (single isomer, unassigned) [revaprazan hydrochloride crystalline form II] :: White
Cc1nc(Nc2ccc(F)cc2)nc(N2CCc3ccccc3C2C)c1C (single isomer, unassigned) [revaprazan hydrochloride crystalline form I] :: White powder
Cc1nc(Nc2ccc(F)cc2)nc(N2CCc3ccccc3C2C)c1C (single isomer, unassigned) [revaprazan hydrochloride crystalline form V] :: White powder
Cc1nc(Nc2ccc(F)cc2)nc(N2CCc3ccccc3C2C)c1C (single isomer, unassigned) [revaprazan hydrochloride crystalline form IV] :: White powder

====

Assay: Accelerated test (40±2° C., relative humidity 75±5%, 6 months, sealed polyethylene film bag)
Assay type: physicochemical
Conditions: 40±2° C., RH 75±5%, 1st month; hydrochloride
Structures can show the parent of a compound that is named as a salt.
ASSAY_ENDPOINT: Relevant substances

Cc1nc(Nc2ccc(F)cc2)nc(N2CCc3ccccc3C2C)c1C (single isomer, unassigned) [revaprazan hydrochloride crystalline form III] :: Undetected
Cc1nc(Nc2ccc(F)cc2)nc(N2CCc3ccccc3C2C)c1C (single isomer, unassigned) [revaprazan hydrochloride crystalline form IV] :: Undetected
Cc1nc(Nc2ccc(F)cc2)nc(N2CCc3ccccc3C2C)c1C (single isomer, unassigned) [revaprazan hydrochloride crystalline form V] :: Undetected

====

The entries below come with measured Purity (%) values attached.
Assay: Accelerated test (40±2° C., relative humidity 75±5%, 6 months, sealed polyethylene film bag)
Assay type: physicochemical
Settings: 40±2° C., RH 75±5%, 1st month; hydrochloride
Structures can show the parent of a compound that is named as a salt.
ASSAY_ENDPOINT: Purity (%)

Cc1nc(Nc2ccc(F)cc2)nc(N2CCc3ccccc3C2C)c1C (single isomer, unassigned) [revaprazan hydrochloride crystalline form II] :: 99.93
Cc1nc(Nc2ccc(F)cc2)nc(N2CCc3ccccc3C2C)c1C (single isomer, unassigned) [revaprazan hydrochloride crystalline form V] :: 99.98
Cc1nc(Nc2ccc(F)cc2)nc(N2CCc3ccccc3C2C)c1C (single isomer, unassigned) [revaprazan hydrochloride crystalline form IV] :: 99.91
Cc1nc(Nc2ccc(F)cc2)nc(N2CCc3ccccc3C2C)c1C (single isomer, unassigned) [revaprazan hydrochloride crystalline form I] :: 99.97
Cc1nc(Nc2ccc(F)cc2)nc(N2CCc3ccccc3C2C)c1C (single isomer, unassigned) [revaprazan hydrochloride crystalline form III] :: 99.92
